# Test system: UO-31
# Procedure Details: NCI tumour cell line growth inhibition, 48 h
Active and inactive are the calls of the source. Rule as the data show it: active = GI50 up to about 1.1 µM and inactive = higher.
Please state which outcome applies, choosing from label 1 = active, label 0 = inactive

Query: What did the test return for NC(CCCNc1cccc(O)c1)C(=O)O (stereo not given) ?
Result: label 0

Query: Another: COc1cc2c(cc1O)[C@@]1(Cc3ccc(OC)c(OC)c3)CCC(=O)N1CC2
Result: label 0

Query: Then CCCCCCCCCCCCCCCCNc1ccn(C2CC(OP(=O)(O)OCC3OC(n4cc(CC)c(=O)[nH]c4=O)CC3O)C(CO)O2)c(=O)n1 (stereo not given) ?
Result: label 0

Query: Param item: CN(Cc1ccccc1)/C(=N\C#N)N(Cc1ccccc1)Cc1ccccc1
Result: label 0

Query: Now this one: CC1(C)OC2C(CO)OC(n3ccc(N)nc3=O)C2O1 (stereo not given)
Result: label 0

Query: Also check COc1ccc(/C(C)=N/NC(=S)N(C)C)c(O)c1
Result: label 0

Query: # iterate: O=c1[nH]c2cc(F)c(F)cc2nc1Cc1ccccc1
Result: label 0

Query: Can you handle Cc1cc(N(C)C)ccc1/N=N/c1ccc2ncccc2c1 next?
Result: label 0

Query: Next molecule: Cc1cc2nc3c(=O)n(C)c(=O)nc-3n(-c3ccc(Cl)cc3)c2cc1C
Result: label 0

Query: Please answer likewise for Nc1nc2c(ncn2Cc2ccccc2CO)c(=O)[nH]1
Result: label 0

Query: // same read-out, input: COc1ccc(-c2cc3ccccc3oc2=O)cc1OC
Result: label 0

Query: Likewise for CC(=O)CSc1c(-c2ccccc2)c(=O)n(-c2ccccc2)c(=S)n1-c1ccccc1 ?
Result: label 0

Query: Then this molecule: Cn1c(/C=C/CO)c(CO)c2c1C(=O)C=C(N1CC1)C2=O
Result: label 1

Query: Same read-out for COc1cccc2c1C(=O)c1c(O)c3c(c(O)c1C2=O)C[C@@](O)(C(C)=O)C[C@@H]3OC1CC([N+]([O-])(Cc2ccccc2)Cc2ccccc2)C(O)C(C)O1 (stereo not given in full) ?
Result: label 0

Query: Entry to check: NS(=O)(=O)c1ccc(NC(=O)Nc2cccc3ccccc23)cc1
Result: label 0

---

Exercise: state measured GI50 for each of the compounds provided.
# System: NCI/ADR-RES
# Procedure Details: NCI tumour cell line growth inhibition, 48 h
The source made the active and inactive calls. Rule as the data show it: active = GI50 up to about 1.1 µM and inactive = higher.

Query: Consider the compound shown here: O=[N+]([O-])c1ccc(C(c2c[nH]c3ccccc23)c2c[nH]c3ccccc23)cc1 What is its recorded GI50?
Result: 11 µM (inactive)

Query: What about this compound? N#C[BH2-][n+]1ccc(C(=O)NNCc2cccc(C(F)(F)F)c2)cc1
Result: 11.6 µM (inactive)

Query: Same question, FC(F)(F)C1(C(F)(F)F)OC(Cl)(Cl)C(Cl)(Cl)O1 this time
Result: > 10 µM (inactive)

Query: Another compound: CCCNC1=C2CC(C)CC(OC)[C@@H](O)[C@H](C)/C=C(\C)C(OC(N)=O)C(OC)/C=C\C=C(/C)C(=O)NC(=CC1=O)C2=O (some centres undefined)
Result: 3.31 µM (inactive)

Query: How about this compound: N=C(N)N/N=C/c1nc2n(c1[N+](=O)[O-])CCS2
Result: > 100 µM (inactive)

Query: What would you report for Nc1nc(O)c(N)c(NCCOCP(=O)(O)O)n1 ?
Result: > 100 µM (inactive)

Query: Now give it for COc1cc(OC)c(NC2=NCCO2)cc1Cl too.
Result: 32.4 µM (inactive)

Query: What about this compound? CCOC(=O)/C(=C\NC[C@@H](C)O)c1nc2ccccc2[nH]1
Result: 44.3 µM (inactive)

Query: Follow-up entry: Nc1nc(Cl)c(/C=N\O)c(NCC2(CO)CCC2)n1
Result: 28.5 µM (inactive)

Query: Input O=C1C(Cl)=C(N[C@@H](Cc2ccccc2)C(=O)OCc2ccccc2)C(=O)c2c(O)ccc(O)c21
Result: 1.88 µM (inactive)

Query: Next compound: Nc1ccccc1C#CC(=O)c1cccc(C(F)(F)F)c1
Result: 4.89 µM (inactive)

Query: # repeat for Cc1cn([C@H]2C[C@](C)(CO)N(C)O2)c(=O)[nH]c1=O
Result: > 100 µM (inactive)

Query: Continue with CCN(C(=O)/C=C/c1ccco1)c1ccccc1
Result: > 100 µM (inactive)

Query: Next compound up: O=S1(=O)C(c2ccccc2)=C(O)c2ccccc21
Result: > 100 µM (inactive)

---

# Test system: SNB-19
# Procedure Details: NCI tumour cell line growth inhibition, 48 h
Activity calls are given as the source filed them. No stated cut-off is given here; in the data, active = GI50 up to about 1.1 µM and inactive = higher.
Kindly supply the reported GI50 values for the records listed here.

Query: Fill in: GI50 of Cc1cc(N(CCC#N)CCC#N)ccc1/C=C1/N=C(c2ccccc2)N(N)C1=O is ___
Result: 31.1 µM (inactive)

Query: Check O=c1c(Br)cc2nc3ccccc3sc-2c1Br too.
Result: > 100 µM (inactive)

Query: Same lookup for CCN(CC)CC1CCCCN1CC(=O)N1c2ccccc2C(=O)Nc2cccnc21 (stereo not drawn) , please.
Result: > 100 µM (inactive)

Query: Request: COc1ccc(-c2onc(-c3ccc([N+](=O)[O-])cc3)c2C2=NCCCN2)cc1
Result: > 100 µM (inactive)

Query: Next compound up: O=C1/C(=C/c2ccccc2S)N=C(c2ccccc2)N1c1nc2c(Cl)cc(Cl)cc2s1
Result: 27.8 µM (inactive)

Query: Now try CC1(C)C(O)c2ccccc2OC1N1CCN(C2Oc3ccccc3C(O)C2(C)C)CC1 (stereo not drawn) .
Result: > 100 µM (inactive)

Query: Now this one: COc1ccc(NC(=S)N/N=C2\C(=O)Nc3ccccc32)cc1
Result: 41.7 µM (inactive)

Query: Record: CC(C)(C)C1CCC2c3c([nH]c4ncccc34)C3C(=O)N(c4ccccc4)C(=O)C3C2C1 (stereo not drawn)
Result: > 100 µM (inactive)

---

# Test system: M14
# Procedure Details: NCI tumour cell line growth inhibition, 48 h
The source made the active and inactive calls. Cut-off read from the data, not from the text of the source: active = GI50 up to about 1.1 µM and inactive = higher.
Reply using exactly one outcome from active, inactive

Query: Any idea what this test logged for O=c1ccn([C@@H]2C[C@H](CO)C[S+]([O-])C2)c(=O)[nH]1 (some centres undefined) ?
Result: inactive

Query: Another compound: CCOc1ccc2nc(NC(=O)C(=O)C(C(=O)c3ccccc3-c3ccccc3)C3OC(=O)c4ccccc43)sc2c1 (centres undefined)
Result: inactive

Query: Follow-up entry: CCOC(=O)c1ccc(NC(=O)SCCC(=O)O)cc1
Result: inactive

Query: What would you report for Cn1c(N)c(Cc2ccc(Cl)cc2)c(=O)[nH]c1=O ?
Result: inactive

Query: What do you have for CC(=O)c1ccccc1NS(=O)(=O)c1ccc2nc(C)n(NS(=O)(=O)c3ccccc3C(C)=O)c(=O)c2c1 ?
Result: inactive

Query: Thanks! And COC(=O)c1cc(-c2ccc(OC)c(OC)c2)oc1-c1ccc(OC)c(OC)c1 ?
Result: inactive

Query: Repeat with CNc1ncc(-c2nnnn2-c2ccccc2)c(CN(C)C)n1
Result: inactive

Query: // repeat for CCOC(=O)C(=Cc1ccccc1Br)C(=O)OCC and report
Result: active

Query: Likewise for Cc1ccc2c(ccc3[nH]cc(CNc4ccc(NS(C)(=O)=O)cc4)c32)n1 ?
Result: inactive

Query: Likewise for COc1cc(NS(C)(=O)=O)ccc1NCc1c[nH]c2ccc3nc(C)ccc3c12 ?
Result: inactive

Query: // same read-out, input: O=C1C=C(C2=CC(=O)C(=O)c3ccccc32)c2ccccc2C1=O
Result: inactive

Query: Let us now turn to NNC(=O)c1ccc(-n2nnc(C(=O)NN)c2C(=O)NN)cc1
Result: inactive

Query: What do we get for N#C/C(=C\c1ccc(F)cc1)c1nc(-c2cc3ccccc3oc2=O)cs1 ?
Result: inactive

Query: Next up: CC(C)c1cccc(=O)c(O)c1
Result: inactive

Query: Try COc1ccc(NC(=S)N/N=C2\C(=O)Nc3ccccc32)cc1 next.
Result: inactive

Query: Please give the result for N#Cc1c(Cl)nc2ccccc2c1N=[N+]=[N-] too.
Result: inactive

Query: Ok, now Cc1ccc(CC2(OCCN(C)C)CCC(C(C)(C)C)CC2)cc1 (centres undefined)
Result: inactive

Query: Same thing, different compound: Cc1cccc2c(=O)c3c(O)cc4c(c3n(C)c12)C=CC(C)(C)O4
Result: inactive

Query: Item: Cc1cc2nc3c(=O)n(C)c(=O)nc-3n(-c3ccc(Cl)cc3)c2cc1C
Result: inactive

---

# System: A498
# Procedure Details: NCI tumour cell line growth inhibition, 48 h
The source made the active and inactive calls. No stated cut-off is given here; in the data, active = GI50 up to about 1.1 µM and inactive = higher.
Outcome field: choose from label 1 = active, label 0 = inactive

Query: # outcome recorded in this test, key = O=[N+]([O-])c1cc2c([N+](=O)[O-])cccc2o1
Result: label 0

Query: Next up: CC1=C(C(=O)NCc2ccccc2)C(c2ccc(C3C(C(=O)NCc4ccccc4)=C(C)NC(C)=C3C(=O)NCc3ccccc3)cc2)C(C(=O)NCc2ccccc2)=C(C)N1
Result: label 0

Query: Consider next the molecule CC(C)(C)NC(=O)C12C3C4C1C1C2C3C41I (centres undefined) in the same way.
Result: label 0

Query: // next record CN(C)CCCCN1c2ccccc2Sc2ccc(C(=O)c3ccccc3)cc21
Result: label 0

Query: Please answer likewise for COC1C(O)C(O[C@H]2CC[C@@]3(C)C(CC[C@@H]4[C@@H]3CC[C@]3(C)[C@@H](C(C)OC5OC(CO)C(O)C(O)C5O)CC[C@]43O)C2)OC(C)C1OC1OC(CO)C(O)C(O)C1O (some centres undefined)
Result: label 0

Query: Also C=C1CC(Cn2cc(C)c(=O)[nH]c2=O)(c2ccc(Cl)cc2)OC1=O (centres undefined) ?
Result: label 0

Query: Field entry: COC(=O)C1=CC(=O)C(C(=O)Nc2ccc(OC)cc2)C(c2ccccc2)O1 (centres undefined)
Result: label 0

Query: Ok, now CC1(C)C(c2ccccc2)=NN(O)c2ccccc21
Result: label 0

Query: Field entry: O=C1c2ccccc2C(=O)c2c1cc(S(=O)(=O)O)c(O)c2O
Result: label 0

Query: For O=c1c(Br)cc2nc3ccccc3sc-2c1Br then?
Result: label 0

Query: // repeat for O=C1c2ccccc2C(=O)N1CCCOCc1cnc(O)nc1O and report
Result: label 0

Query: Follow-up item: O=[N+]([O-])c1ccc2nc(=S)[nH]n2c1
Result: label 0

Query: Same question for CCOC(=O)C1=CC(C)(C(=O)OCC)Nc2c(nc(SC)n(C)c2=O)N1 (centres undefined) please.
Result: label 0

Query: # repeat for CCOC(=O)c1ccc(/N=N\c2ccc(N(CCC#N)CCC#N)cc2C)cc1
Result: label 0

Query: // next record CCOC(=O)C1CSCCSC1
Result: label 0

Query: Similarly, Nc1nc(Cl)c(/C=N\O)c(NCC2(CO)CCC2)n1 ?
Result: label 0

Query: Record: CCN(CC)CCNc1ccc2nnn3c4ccc(OC(C)=O)cc4c(=O)c1c23
Result: label 0

Query: Also, CC[C@@]1(O)C(=O)OCc2c1cc1n(c2=O)Cc2c-1nc1ccccc1c2/C=N\NC(=O)C(N)CO (some centres undefined) please.
Result: label 0

Query: Same for COc1ccc([C@@H]2C[C@@H]3C(=O)OC(=O)[C@@H]3c3c2c2ccccc2n3C)cc1
Result: label 0

Query: # repeat for CC(/C=C/C=C/C=C/C=C/C=C/C(=O)C1=C(O)C(CCC(=O)O)N(C)C1=O)=C\C(C)C(OC1CC(O)C(O)C(C)O1)C(C)C (centres undefined)
Result: label 0

Query: And CC1(C)O[C@@H]2[C@@H](COC(C)(C)O[C@H]2C2SCCCS2)O1 ?
Result: label 0

Query: What do we get for CCOC(=O)C(=Cc1ccccc1Br)C(=O)OCC ?
Result: label 0

Query: Repeat for the following molecule: COc1ccc(C(CC(C)=O)c2c(O)c3ccccc3oc2=O)cc1OC (centres undefined)
Result: label 0

Query: Now try Nc1ncnc2c1ncn2C1OC(CO)C(O)C1N (centres undefined) .
Result: label 0

Query: Also check Cn1c(/C=C/CO)c(CO)c2c1C(=O)C=C(N1CC1)C2=O
Result: label 1

Query: Can you handle OCCN1CCN(CC/C=C2/c3ccccc3Sc3ccc(Cl)cc32)CC1 next?
Result: label 0

Query: // repeat for Cc1c(C)n(-c2ccccc2)c2nc([S+](C)[O-])nc([S+](C)[O-])c12 (centres undefined) and report
Result: label 0

Query: Another molecule to check: CC1(C)OC[C@@H]([C@@]2(COC(c3ccccc3)(c3ccccc3)c3ccccc3)CC=CC(=O)O2)O1
Result: label 0

Query: And then COC(=O)C(C(=O)OC)C1CCCC(=O)C1 (centres undefined) , what is it?
Result: label 0

Values were extracted from ChEMBL document CHEMBL1201862.
